# assay.remarks: Selectivity index, ratio of IC50 for AChE (unknown origin) to IC50 for equine serum BChE

compound	Ratio IC50
COc1ccccc1/C=C1\CN(C(=O)[C@@H]2CCN(C)[C@]23C(=O)Nc2ccccc23)C[C@]2(C1=O)[C@H](c1ccccc1OC)CN(C)[C@]21C(=O)Nc2ccccc21 (racemic)	0.45
C=CC(=O)N1C/C(=C\c2ccccc2)C(=O)[C@@]2(C1)[C@H](c1ccccc1)CN(C)[C@]21C(=O)Nc2ccccc21 (racemic)	1.16
C=CC(=O)N1C/C(=C\c2ccccc2Cl)C(=O)[C@@]2(C1)[C@H](c1ccccc1Cl)CN(C)[C@]21C(=O)Nc2ccccc21 (racemic)	1.22

meta.source: ChEMBL document CHEMBL3112490
